- Test system: Wolbachia pipientis
- assay info: Anti-Wolbachia Cell-Based Screen
- Assay type: functional
- Design: scale not given: in the data most compounds retested in dose-response had high values
- run conditions: 5 µM
The whole screen tested about 48,000 compounds, of which about 13,000 (27%) showed an effect of 50% or more. The list shows a part of the results.
Recorded Percent Effect for the following compounds
All answers are understood in %, so give the number only.

N#Cc1ccc(N2CCCN(C(=O)CC3CCCO3)CC2)cc1 (stereo not drawn)
5.693
Cc1ccccc1N1CCCN(C(=O)CC2CN(C(C)C)CCO2)CC1 (stereo not drawn)
116.5

GET Percent Effect where system = Wolbachia pipientis and item = Nc1cc(-c2cncnc2C2CCN(C(=O)c3ccccc3)C2)ccn1 (stereo not drawn)
132.6

GET Percent Effect where system = Wolbachia pipientis and item = "CNC(=O)N1CCc2cc(C(=O)NCC3CC3)c(NC(C)C)nc2CC1"
0.2326

GET Percent Effect where system = Wolbachia pipientis and item = "CN(C)c1ccc(CNC2(c3ccc(F)cc3)CCOCC2)cc1F"
-20.17

GET Percent Effect where system = Wolbachia pipientis and item = "CNC(=O)c1cc2c(nc1NCC1CC1)CCNCC2"
13.18

GET Percent Effect where system = Wolbachia pipientis and item = "CN(C)C(=O)c1cc2c(nc1NCC1CC1)CCN(CC1CC1)CC2"
87.77

GET Percent Effect where system = Wolbachia pipientis and item = "CCN1CCc2cc(C(=O)N(C)C)c(NCC3CC3)nc2CC1"
103.3

GET Percent Effect where system = Wolbachia pipientis and item = "CNC(=O)N1CCc2cc(C(=O)N(C)C)c(NCC3CC3)nc2CC1.O=C(O)C(F)(F)F"
7.418

GET Percent Effect where system = Wolbachia pipientis and item = CC(C)N1CCOC(CC(=O)N2CCCN(c3ccc(F)cc3)CC2)C1 (stereo not drawn)
103.5

====

- System: Wolbachia pipientis
- assay info: Anti-Wolbachia Cell-Based Screen
- Assay type: functional
- Parameters: scale not given: in the data most compounds retested in dose-response had high values
- run conditions: 5 µM
Hit rate of the full screen: of about 48,000 compounds, about 13,000 (27%) showed an effect of 50% or more. Some of the results follow.
parameter: Percent Effect (%)
All answers are understood in %, so give the number only.

Study these solved cases before continuing.
CC(C)N(C)Cc1cn2c(n1)CN(C(=O)Cc1ccsc1)CC2.O=C(O)C(F)(F)F
-0.9088
COc1ccc(CN(Cc2ccco2)Cc2[nH]cnc2C)c(OC)c1.O=C(O)CC(O)(CC(=O)O)C(=O)O
111.9
Cc1ccccc1OCC(=O)N1CC[C@]2(C[C@@H](OCC3CC3)CO2)C1
14.13
COc1ccc(NC(=O)N(C)Cc2ccco2)cn1
3.036
O=C(Cc1ccsc1)N1CCn2cc(CN3CCCC3)nc2C1
-4.915
CN(C)Cc1cn2c(n1)CN(C(=O)Cc1ccsc1)CC2.O=C(O)C(F)(F)F
96.46
CCCc1n[nH]c(C2CN(C(=O)Cn3ccccc3=O)CCO2)n1 (stereo unspecified)
125.8
CC(C)c1nc(CN2CCCC2Cn2cccn2)no1 (stereo unspecified)
118.9

Note down Percent Effect recorded for O=C(c1ccc(=O)[nH]n1)N1CCNCC1c1ccccc1 (stereo unspecified)
145.5

Note down Percent Effect recorded for COc1cccc(CN2CCC(c3cc(O)nc(C)n3)C2)c1.O=C(O)CC(O)(CC(=O)O)C(=O)O (stereo unspecified)
-8.452

====

Recorded Percent Effect for the following compounds
- Tested on: Wolbachia pipientis
- assay info: Anti-Wolbachia Cell-Based Screen
- Format: functional
- Set-up: scale not given: in the data most compounds retested in dose-response had high values
- run conditions: 5 µM
The whole screen tested about 48,000 compounds, of which about 13,000 (27%) showed an effect of 50% or more. Some of the results follow.

Study these solved cases before continuing.
CCC[C@H]1CN(S(=O)(=O)c2cc(C)ccc2C)C[C@@H]1N
-30.29%
O=C(N1CCOCC1)N1CCN(c2ccncc2Cl)CC1
-18.06%
Cn1ccc(C(=O)N2CCCC(n3cncn3)C2)cc1=O (centres undefined)
3.949%
CN(Cc1nc(-c2cccs2)no1)Cc1nc2c(s1)CCCC2
-10.58%
Cc1nn(C)c(C)c1C(=O)N1CCN(C(=O)CCC2CCCCC2)CC1
-21.72%
O=C(c1ccc2[nH]ccc2c1)N1CCCCC1c1nc[nH]n1 (centres undefined)
5.747%

Note down Percent Effect recorded for "CCC(=O)N1C[C@@H]2CCN(c3cnccn3)C[C@@H]2C1.O=C(O)C(F)(F)F"
109.3%

Note down Percent Effect recorded for CNS(=O)(=O)CC1CCCN1C(=O)c1ccc2cc[nH]c2c1 (centres undefined)
-9.261%

Note down Percent Effect recorded for "CC(C)(C)OC(=O)N1CCCN1C(=O)c1cccc2cc[nH]c12"
-15.66%

Note down Percent Effect recorded for CSCCC1c2nc[nH]c2CCN1Cc1cc(Cl)ccc1O (centres undefined)
-0.8881%

Note down Percent Effect recorded for "CCc1nnc2n1CCN(C(=O)c1ccc3[nH]cnc3c1)C2"
-15.67%

Note down Percent Effect recorded for N#CC1COCCN1C(=O)c1ccc2cc[nH]c2c1 (centres undefined)
87.5%

Note down Percent Effect recorded for N#CC1COCCN1C(=O)c1ccc2[nH]ccc2c1 (centres undefined)
142.7%

Note down Percent Effect recorded for N#CC1COCCN1C(=O)c1cccc2cc[nH]c12 (centres undefined)
105.1%

Note down Percent Effect recorded for O=C(c1ccc2c(c1)COC2)N1CCCC(n2cncn2)C1 (centres undefined)
130%

Note down Percent Effect recorded for O=C(c1cccc2cc[nH]c12)N1CCC2(CCOC2)C1 (centres undefined)
-1.625%

Note down Percent Effect recorded for "O=C(c1ccc2[nH]cnc2c1)N1CCC(Oc2cccnc2)CC1"
-0.01073%

Note down Percent Effect recorded for NC(=O)CC1CCCCN1C(=O)c1ccc2cc[nH]c2c1 (centres undefined)
-8.838%

Note down Percent Effect recorded for "Cc1nn(C)c(C)c1C(=O)N1CCN(c2ccncc2Cl)CC1"
86.38%

Note down Percent Effect recorded for "Cc1cc(C(=O)N2CCN(c3ccncc3Cl)CC2)n(C)n1"
77.84%

Note down Percent Effect recorded for O=C1CCCN1CCN1CCCCC1Cn1cccn1 (centres undefined)
-13.35%

====

- Tested on: Wolbachia pipientis
- assay info: Anti-Wolbachia Cell-Based Screen
- Assay type: functional
- Design: scale not given: in the data most compounds retested in dose-response had high values
- run conditions: 5 µM
Among all 48,000 compounds or so, about 13,000 (27%) showed an effect of 50% or more. The list shows a part of the results.
parameter: Percent Effect (%)
All answers are understood in %, so give the number only.

Study these solved cases before continuing.
CSCCC(=O)N1CCc2c(ncnc2N2CCOCC2)C1
-13.57
CCc1cc(CN(C)C(=O)C2CC(=O)N(c3cccc(O)c3)C2)on1 (centres undefined)
-10.41
CNC(=O)C1CCCCN1C(=O)c1csc(-c2ccc(C)cc2)n1 (centres undefined)
-3.515
Cc1cnccc1N1CCCN(C(=O)CCc2n[nH]c(C)c2C)CC1
-9.911
O=S1(=O)COCCN1CCOc1ccc(F)cc1
-2.392

GET Percent Effect where system = Wolbachia pipientis and item = "CC1(C)OC(=O)N(CCCC(=O)c2ccc(F)cc2)C1=O"
116.7

====

- Test system: Wolbachia pipientis
- assay info: Anti-Wolbachia Cell-Based Screen
- Type: functional
- Parameters: scale not given: in the data most compounds retested in dose-response had high values
- run conditions: 5 µM
Screen size: about 48,000 compounds; about 13,000 (27%) showed an effect of 50% or more. The list shows a part of the results.
Recorded Percent Effect for the following molecules
All answers are understood in %, so give the number only.

O=C(c1ccco1)N(c1ccc(F)cn1)C1CCOCC1
7.992

Note down Percent Effect recorded for C[S+]([O-])CCNC(=O)Nc1cc(F)ccc1-n1cccn1 (configuration not stated)
-7.044

====

Recorded Percent Effect for the following compounds
- System: Wolbachia pipientis
- assay info: Anti-Wolbachia Cell-Based Screen
- Assay type: functional
- Set-up: scale not given: in the data most compounds retested in dose-response had high values
- run conditions: 5 µM
Out of some 48,000 compounds screened, about 13,000 (27%) showed an effect of 50% or more. The list shows a part of the results.
All answers are understood in %, so give the number only.

CC(=O)NC1CC(C)(C)Cc2c1cnn2-c1cccc(F)c1 (configuration not stated)
27.72

Note down Percent Effect recorded for "CC(=O)N1Cc2cnc(C(C)(C)C)nc2C1"
-14.29

Note down Percent Effect recorded for Cc1cc2c(o1)CC(C)(C)CC2NC(=O)CNC(=O)C1CC1 (configuration not stated)
15.35

Note down Percent Effect recorded for "Cc1cc(C)n(CC(=O)N2Cc3cnc(C(C)(C)C)nc3C2)n1"
-6.513

====

- Tested on: Wolbachia pipientis
- assay info: Anti-Wolbachia Cell-Based Screen
- Format: functional
- Set-up: scale not given: in the data most compounds retested in dose-response had high values
- run conditions: 5 µM
In all, about 48,000 compounds went through this assay and about 13,000 (27%) showed an effect of 50% or more. Some of the results follow.
parameter: Percent Effect (%)
All answers are understood in %, so give the number only.

Study these solved cases before continuing.
COCC1CN(C(=O)Nc2cc(Cl)ccc2F)CCO1 (stereo not given)
-13.77
CC/C=C(/C)C(=O)N1CCN(C2=NCC(C)S2)CC1 (stereo not given)
-1.897
COCC1CN(C(=O)Nc2ccc(Cl)cc2Cl)CCO1 (stereo not given)
-1.722
COCCOc1ccc(NC(=O)N2CCOC(C(N)=O)C2)cc1F (stereo not given)
100.1
CCOc1ccc(C#N)cc1NC(=O)N1CCOC(C(N)=O)C1 (stereo not given)
8.32

Note down Percent Effect recorded for "CN1C(=O)CCc2cc(NC(=O)C3CC3)ccc21"
-10.85

Note down Percent Effect recorded for Cc1cccnc1NC(=O)C(C)Cn1nc(C(F)(F)F)cc1C (stereo not given)
5.887

Note down Percent Effect recorded for "COc1ccc(CNCCc2cc(F)cc3c2OCOC3)cc1O"
19

Note down Percent Effect recorded for O=C(c1cnccn1)N1CCCC(c2cccc(-n3ccnc3)n2)C1 (stereo not given)
132.1

Note down Percent Effect recorded for O=C(C1CCC1)N1CCCC(c2cccc(-n3ccnc3)n2)C1 (stereo not given)
120

Note down Percent Effect recorded for CCCc1nc(CNc2cccc(C(=O)N3CCCC(O)C3)c2)no1 (stereo not given)
1.271

Note down Percent Effect recorded for "O=S(=O)(Nc1nccs1)c1cc(Cl)cc2c1OCC2"
-24.06

Note down Percent Effect recorded for Cc1cccc2c(CCNS(=O)(=O)C3CCOC3)c[nH]c12 (stereo not given)
14.98

Note down Percent Effect recorded for CCOc1ccc(NC(=O)NC2CCc3nc(C)nn3C2)cc1Cl (stereo not given)
-21

Note down Percent Effect recorded for "Cc1noc(NS(=O)(=O)c2ccc(Cl)s2)c1C"
-16.85

Note down Percent Effect recorded for COCC1CN(C(=O)Nc2cc(Br)ccc2F)CCO1 (stereo not given)
-0.1525

Note down Percent Effect recorded for CCOc1ccc(NC(=O)N2CCOC(C(N)=O)C2)cc1C (stereo not given)
95.69
